- Protocol: PFOA in terminal plasma, lung lavage and tissues 48 h after dust exposure
- Format: in vivo, rat
- Test conditions: male, RccHan:WIST, rat, kidney, 364 μg PFOA/kg BW; 48 h, oral gavage; read-out: Kidney:plasma ratio of PFOA concentration
Observed property: Kp at 48 h
Respond numerically, and do not add a unit to the figure.

Kp at 48 h in this record for O=C(O)C(F)(F)C(F)(F)C(F)(F)C(F)(F)C(F)(F)C(F)(F)C(F)(F)F [PFOA, Perfluorooctanoic acid] : 1.72

* * *

- Protocol: PFOA in terminal plasma, lung lavage and tissues 48 h after dust exposure
- Type: in vivo, rat
- Test conditions: male, RccHan:WIST, rat, lung lavage (BALF), po, 364 μg PFOA/kg BW, lung lavage, 48 h, oral gavage
Observed property: concentration at 48 h

concentration at 48 h for O=C(O)C(F)(F)C(F)(F)C(F)(F)C(F)(F)C(F)(F)C(F)(F)C(F)(F)F is 310 ng/mL
